All figures here come from patent EP4603105A1.

Reported log10 Kd values are given for each entry in this list.
biological target: UniProtKB P01116; assay: Binding to KRAS by surface plasmon resonance (SPR), dissociation constant KD; conditions: Single Cycle Kinetics, 1:1 binding model
Sequence (P01116 1-188 isoform P01116-2): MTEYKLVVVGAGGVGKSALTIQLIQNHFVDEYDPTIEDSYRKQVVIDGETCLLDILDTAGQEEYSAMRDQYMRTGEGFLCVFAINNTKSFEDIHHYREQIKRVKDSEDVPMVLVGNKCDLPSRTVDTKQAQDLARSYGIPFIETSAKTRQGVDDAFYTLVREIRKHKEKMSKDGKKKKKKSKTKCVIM
Where a SMILES comes first, the peptide text is derived from it. Bridges are numbered along the chain shown (N, C = ends). [ ]: non-standard residue; d: D form. The star is where a group is joined. hPhe(3-Cl-4-CF3) = N[C@@H](CCc1ccc(C(F)(F)F)c(Cl)c1)C(=O)O; NPrPhe(4-CF3) = CCCN[C@@H](Cc1ccc(C(F)(F)F)cc1)C(=O)O; NMeGly(cPent) = CN[C@H](C(=O)O)C1CCCC1; NMeD = CN[C@@H](CC(=O)O)C(=O)O; NMeL = CN[C@@H](CC(C)C)C(=O)O; Morpholide = C1CN(*)CCO1; Ac4c = NC1(C(=O)O)CCC1; NEtG = CCNCC(=O)O; Sar = CNCC(=O)O
quantity-name: log10 Kd (log10 of the value in nM)

compound	target-under-test	log10 Kd
CCCN1C(=O)CN(CC)C(=O)CN(C)C(=O)[C@H]([C@@H](C)CC)NC(=O)[C@H](CC(C)C)N(C)C(=O)C[C@@H](C(=O)N2CCOCC2)N(C)C(=O)[C@H](C2CCCC2)N(C)C(=O)C2(CCC2)NC(=O)[C@@H]2CCCN2C(=O)[C@H](CCc2ccc(C(F)(F)F)c(Cl)c2)NC(=O)CN(C)C(=O)[C@@H]1Cc1ccc(C(F)(F)F)cc1 [PP1948] ([NMeL]I[Sar][NEtG][NPrPhe(4-CF3)][Sar][hPhe(3-Cl-4-CF3)]P[Ac4c][NMeGly(cPent)][NMeD]-Morpholide; lactam N-11)	UniProtKB P01116	-0.39
CCO[C@@H]1C[C@H]2C(=O)NC3(CCC3)C(=O)N(C)[C@@H](C3CCCC3)C(=O)N(C)[C@H](C(=O)N(CC)CC)CC(=O)N(C)[C@@H](CC(C)C)C(=O)N[C@@H]([C@@H](C)CC)C(=O)N(C)CC(=O)N(C)[C@H]3C/C=C\CCN(C3=O)[C@@H](Cc3ccc(C)cc3)C(=O)N(C)CC(=O)N[C@@H](CCc3ccc(C(F)(F)F)c(OC)c3)C(=O)N2C1 [PP1851]	UniProtKB P01116	0.26
CCO[C@@H]1C[C@H]2C(=O)NC(C)(C)C(=O)N(C)[C@@H](C3CCCC3)C(=O)N(C)[C@H](C(=O)N(C)CC)CC(=O)N(C)[C@@H](CC(C)C)C(=O)N[C@@H]([C@@H](C)CC)C(=O)N(C)CC(=O)N(C)[C@H]3C/C=C\CCN(C3=O)[C@@H](Cc3ccc(C(F)(F)F)cc3)C(=O)N(C)CC(=O)N[C@@H](CCc3cc(F)c(C(F)(F)F)c(F)c3)C(=O)N2C1	UniProtKB P01116	-0.51
CCC[C@@H]1C[C@H]2C(=O)NC3(CCCC3)C(=O)N(C)[C@@H](C3CCCC3)C(=O)N(C)[C@H](C(=O)N(C)C)CC(=O)N(C)[C@@H](CC(C)C)C(=O)N[C@@H]([C@@H](C)CC)C(=O)N(C)CC(=O)N(C)[C@H]3C/C=C\CCN(C3=O)[C@@H](Cc3ccc(C)cc3)C(=O)N(C)CC(=O)N[C@@H](CCc3cc(F)c(C(F)(F)F)c(F)c3)C(=O)N2C1	UniProtKB P01116	-0.39
CCC[C@H]1C(=O)N[C@@H]([C@H](C)CC)C(=O)N(C)CC(=O)N(C)[C@H]2C/C=C\CCN(C2=O)[C@@H](Cc2ccc(C)cc2)C(=O)N(C)CC(=O)N[C@@H](CCc2ccc(C(F)(F)F)c(Cl)c2)C(=O)N2C[C@H](OCC)C[C@H]2C(=O)NC2(CC(C)(C)C2)C(=O)N(C)[C@@H](C2CCCC2)C(=O)N(C)[C@H](C(=O)N(C)C)CC(=O)N1C	UniProtKB P01116	0.23
C=CCCCCN(C)C(=O)[C@@H]1CC(=O)N(C)[C@@H](CC2CC2)C(=O)N[C@@H](CC=C)C(=O)N(C)CC(=O)N(C)[C@H]2C/C=C\CCN(C2=O)[C@@H](Cc2ccc(C(F)(F)F)cc2)C(=O)N(C)CC(=O)N[C@@H](CCc2cc(F)c(C(F)(F)F)c(F)c2)C(=O)N2C[C@H](OCC)C[C@H]2C(=O)NC2(CCC2)C(=O)N(C)[C@@H](C2CCCC2)C(=O)N1C	UniProtKB P01116	0.43
CC[C@H](C)[C@@H]1NC(=O)[C@H](CC(C)C)N(C)C(=O)C[C@@H](C(=O)N2C3CCC2COC3)N(C)C(=O)[C@H](C2CCCC2)N(C)C(=O)C2(CCCC2)NC(=O)[C@@H]2CCCN2C(=O)[C@H](CCc2cc(F)c(C(F)(F)F)c(F)c2)NC(=O)CN(C)C(=O)[C@H](Cc2ccc(C(F)(F)F)cc2)N2CCCC[C@@H](C2=O)N(C)C(=O)CN(C)C1=O	UniProtKB P01116	-0.47
CCCOC[C@H]1C(=O)N[C@@H]([C@@H](C)CC)C(=O)N(C)CC(=O)N(C)[C@H]2C/C=C\CCN(C2=O)[C@@H](Cc2ccc(C)cc2)C(=O)N(C)CC(=O)N[C@@H](CCc2cc(F)c(C(F)(F)F)c(F)c2)C(=O)N2C[C@H](CC)C[C@H]2C(=O)NC2(CCCC2)C(=O)N(C)[C@@H](C2CCCC2)C(=O)N(C)[C@H](C(=O)N(C)C)CC(=O)N1C	UniProtKB P01116	-0.54
CCCOC[C@H]1C(=O)N[C@@H]([C@@H](C)CC)C(=O)N(C)CC(=O)N(C)[C@H]2C/C=C\CCN(C2=O)[C@@H](Cc2ccc(C(F)(F)F)cc2)C(=O)N(C)CC(=O)N[C@@H](CCc2cc(F)c(C(F)(F)F)c(F)c2)C(=O)N2C[C@H](OCC)C[C@H]2C(=O)NC2(CC(C)(C)C2)C(=O)N(C)[C@@H](C2CCCC2)C(=O)N(C)[C@H](C(=O)N(C)C)CC(=O)N1C	UniProtKB P01116	-1.49
CCO[C@@H]1C[C@H]2C(=O)NC3(CCC3)C(=O)N(C)[C@@H](C3CCCC3)C(=O)N(C)[C@H](C(=O)N(C)CC)CC(=O)N(C)[C@H]3CCCCCc4ccc(cc4)C[C@@H](C(=O)N(C)CC(=O)N[C@@H](CCc4cc(F)c(C(F)(F)F)c(F)c4)C(=O)N2C1)N1CC/C=C\C[C@@H](C1=O)N(C)C(=O)CN(C)C(=O)[C@H]([C@@H](C)CC)NC3=O	UniProtKB P01116	-0.77
CCO[C@@H]1C[C@H]2C(=O)NC3(CCC3)C(=O)N(C)[C@@H](C(CC)CC)C(=O)N(C)[C@H](C)CC(=O)N(C)[C@@H](CC3CC3)C(=O)N[C@@H]([C@@H](C)CC)C(=O)N(C)CC(=O)N(C)[C@H]3C/C=C\CCN(C3=O)[C@@H](Cc3ccc(F)cc3C)C(=O)N(C)CC(=O)N[C@@H](CCc3cc(F)c(C(F)(F)F)c(F)c3)C(=O)N2C1	UniProtKB P01116	0.82
